Target: T1, human TIM3, full length, on cells (human, UniProt Q8TDQ0 22-301)
T1 construct: CHO-K1 cells were transfected with a plasmid for full-length human Tim3; other cells carry endogenous TIM3; also called huTIM-3; CHO-Tim3
Assay: cell ELISA, CHO-K1 with full-length human Tim3
Measurement type: Inflexion point (ng/mL)

Tim3_0018MutNS (antibody, V domains shown, also called Tim3_0016 variant (0018) with HVR-L1 variant 2_NS) VH: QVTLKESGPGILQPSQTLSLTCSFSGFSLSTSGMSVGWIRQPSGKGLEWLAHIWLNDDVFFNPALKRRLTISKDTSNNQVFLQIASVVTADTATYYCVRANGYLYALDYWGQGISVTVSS VL: QIVLTQSPAIMSASPGQKVTITCSASSSVSYTQWYQQKLGSSPKLWIYDAFKLAPGVPARFSGSGTGTSYSLTISSMEAEDAASYFCHQWSSYPWTFGGGTKLEIK | 11.1
